TARGET OR SYSTEM: Muscarinic acetylcholine receptor M5 (Homo sapiens) (UniProt P08912)
Sequence (P08912 whole entry, looked up): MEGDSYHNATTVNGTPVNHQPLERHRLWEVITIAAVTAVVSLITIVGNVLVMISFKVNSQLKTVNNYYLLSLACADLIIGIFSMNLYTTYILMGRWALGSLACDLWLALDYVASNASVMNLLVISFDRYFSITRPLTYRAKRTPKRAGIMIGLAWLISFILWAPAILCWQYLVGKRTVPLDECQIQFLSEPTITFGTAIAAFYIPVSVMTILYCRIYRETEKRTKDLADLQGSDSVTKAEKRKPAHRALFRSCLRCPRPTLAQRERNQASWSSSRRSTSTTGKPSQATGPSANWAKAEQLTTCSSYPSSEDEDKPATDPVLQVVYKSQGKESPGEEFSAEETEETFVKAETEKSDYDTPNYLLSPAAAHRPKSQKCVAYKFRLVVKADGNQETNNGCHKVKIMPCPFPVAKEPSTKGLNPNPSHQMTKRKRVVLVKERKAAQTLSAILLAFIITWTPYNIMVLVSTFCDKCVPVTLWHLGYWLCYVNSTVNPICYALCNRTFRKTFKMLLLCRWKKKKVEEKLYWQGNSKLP
ASSAY NOTES: M5 receptor positive allosteric modulators, dose response, cell-based, concentration-response curve (AID 651878)
CONDITIONS USED: CHO-K1 hM5, Fluo-4 calcium flux, ACh EC20 potentiation; at 31.6 µM (top of the series)
The source made the active and inactive calls.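 How the source made its calls: active means Positive modulators of the M5 receptor in a calcium signal test, half-maximal potency under 10 µM; inactive means the rest.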
Outcomes: active, inactive

compound=COc1ccc(-c2ccc(CN3C(=O)C(=O)c4cc(OC(F)(F)F)ccc43)cc2)cn1 class_assignment=active
compound=COc1ncc(-c2ccc(CN3C(=O)C(=O)c4cc(OC(F)(F)F)ccc43)cc2)cn1 class_assignment=active
compound=COc1ccc(CN2C(=O)C(CO)(CO)c3cc(OC(F)(F)F)ccc32)cc1 class_assignment=inactive
compound="COc1ccc(CN2C(=O)C(O)(c3ccc(N(C)C)nc3)c3cc(OC(F)(F)F)ccc32)cc1 (stereo not given)" class_assignment=inactive
compound=COc1ccc(CN2C(=O)C3(COC3)c3cc(OC(F)(F)F)ccc32)cc1 class_assignment=inactive

All figures here come from PubChem BioAssay AID651878.
